Test system: Staphylococcus aureus
Experiment: Antibacterial activity against methicillin-resistant Staphylococcus aureus M14 incubated for 16 to 20 hrs by broth microdilution method
Type: functional
Settings: time 16-20 hrs
Measured MIC accompanies every entry in the list below.
// units = mg/L; emit number, no label

Known MIC results, listed for orientation:
{"smiles.representation": "CC(C)=CCc1c(OCCCCSc2cc[n+](CC(=O)N3CCOCC3)cc2)ccc2ccc(=O)oc12.[Br-]", "units.label": "mg/L", "value.observed": 32}
{"smiles.representation": "CCCCN(CCCC)C(=O)C[n+]1ccc(SCCCCCOc2ccc3ccc(=O)oc3c2CC=C(C)C)cc1.[Br-]", "units.label": "mg/L", "value.observed": 0.5}
{"smiles.representation": "CC(C)=CCc1c(OCCCCCSc2cc[n+](CC(=O)N3CCOCC3)cc2)ccc2ccc(=O)oc12.[Br-]", "units.label": "mg/L", "value.observed": 16}
{"smiles.representation": "CC(C)=CCc1c(OCCCCSc2cc[n+](CC(=O)N(C(C)C)C(C)C)cc2)ccc2ccc(=O)oc12.[Br-]", "units.label": "mg/L", "value.observed": 2}
{"smiles.representation": "CCCNC(=O)C[n+]1ccc(SCCCCOc2ccc3ccc(=O)oc3c2CC=C(C)C)cc1.[Br-]", "units.label": "mg/L", "value.observed": 8}

Find the recorded MIC belonging to `CC(C)=CCc1c(OCCCSc2cc[n+](CC(=O)N(C)c3ccccc3)cc2)ccc2ccc(=O)oc12.[Br-]` and report it.
4

What value of MIC has been reported for the following compound? `COc1ccc2ccc(=O)oc2c1CC=C(C)C`
64

Item under review: `CCCCCNC(=O)C[n+]1ccc(SCCCCOc2ccc3ccc(=O)oc3c2CC=C(C)C)cc1.[Br-]` . Reported MIC?
1

###

Tested on: Staphylococcus aureus
Assay: Antibacterial activity against methicillin-resistant Staphylococcus aureus M17 incubated for 16 to 20 hrs by broth microdilution method
Format: functional
Conditions: time 16-20 hrs
property.measured: MIC (µg/mL)
Only the number, expressed in µg/mL, is required.

Consider the worked cases shown below.
{"smiles.representation": "COc1ccc2ccc(=O)oc2c1CC=C(C)C", "MIC (µg/mL)": 64}
{"smiles.representation": "CC(C)=CCc1c(OCCCSc2cc[n+](CC(=O)N(C)c3ccccc3)cc2)ccc2ccc(=O)oc12.[Br-]", "MIC (µg/mL)": 8}
{"smiles.representation": "CCCCN(CCCC)C(=O)C[n+]1ccc(SCCCCOc2ccc3ccc(=O)oc3c2CC=C(C)C)cc1.[Br-]", "MIC (µg/mL)": 1}
{"smiles.representation": "CCCCNC(=O)C[n+]1ccc(SCCCOc2ccc3ccc(=O)oc3c2CC=C(C)C)cc1.[Br-]", "MIC (µg/mL)": 8}
{"smiles.representation": "CC(C)=CCc1c(OCCCCCSc2cc[n+](CC(=O)N(C(C)C)C(C)C)cc2)ccc2ccc(=O)oc12.[Br-]", "MIC (µg/mL)": 2}

Continue with the compound presented below.
Give the measured MIC of `CCCCCCNC(=O)C[n+]1ccc(SCCCCCOc2ccc3ccc(=O)oc3c2CC=C(C)C)cc1.[Br-]` .
2

###

Test system: Staphylococcus aureus
Experiment: Antibacterial activity against methicillin-resistant Staphylococcus aureus M17 incubated for 16 to 20 hrs by broth microdilution method
Assay type: functional
Settings: time 16-20 hrs
property.measured: MIC (µg/mL)
# number only, unit µg/mL dropped from output

Here is how some compounds turned out for MIC.
{"smiles.representation": "CCCCCCNC(=O)C[n+]1ccc(SCCCOc2ccc3ccc(=O)oc3c2CC=C(C)C)cc1.[Br-]", "MIC [µg/mL]": 4}
{"smiles.representation": "CCCCCCNC(=O)C[n+]1ccc(SCCCCOc2ccc3ccc(=O)oc3c2CC=C(C)C)cc1.[Br-]", "MIC [µg/mL]": 1}

Would you kindly look at the next entry?
Would you mind telling me what MIC value was observed for `CCCCN(CCCC)C(=O)C[n+]1ccc(SCCCOc2ccc3ccc(=O)oc3c2CC=C(C)C)cc1.[Br-]` ?
1
